The origin of these recorded values is paper PMC8991199.

# Tested target: T1, S100A5 (human, UniProt P33763 1-92)
# T1 chain: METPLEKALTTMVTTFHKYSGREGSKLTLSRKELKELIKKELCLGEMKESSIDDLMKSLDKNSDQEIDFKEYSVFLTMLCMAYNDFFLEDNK
# Assay name: FP; competition against fIF
Measured metric: Kd

input: What value of Kd has been reported for the following binder? TRTKIDWNKILS [TRTK12 peptide]
output: 2400 nM
